Below, each entry is listed with its recorded Inhibition.
test system: Plasmodium falciparum; test: GSK_TCMDC: Inhibition of Plasmodium falciparum Dd2 in whole red blood cells, using parasite LDH activity as an index of growth. Test compounds present at 2uM; type: functional

MOLECULE	Inhibition / %
Cc1cc(N(C)C)nc(Nc2ccc(NC(=O)CCc3ccccc3)cc2)n1	84
O=C(Nc1cccc(Cl)c1)c1cnc(N2CCN(c3ccncc3)CC2)c(Cl)c1.O=C(O)C(F)(F)F	97
CC(C)CN1CCN(c2nc(C#N)c3c(c2C(=S)NC2CCCCC2)CC(C)(C)OC3)CC1	99
CCOC(=O)c1ccc(NC(=O)N(Cc2ccc(-c3ccc(CN4CCNCC4)cc3)cc2)Cc2cccnc2)cc1.O=C(O)C(F)(F)F	34
CC12CC3CC(C)(C1)CC(Nc1nc(N4CCOCC4)nc4ccccc14)(C3)C2	14
CCCc1cc(C)ccc1OCCCON1C(NC(=O)OCC)=NC(NC(=O)OCC)=NC1(C)C	97
CCC(CO)NCC(O)Cn1c2ccc(Br)cc2c2cc(Br)ccc21 (centres undefined)	87
Cc1cc(N[C@@H](CC(C)C)C(=O)NCc2cccs2)nc(NCCc2cccs2)n1.O=C(O)C(F)(F)F	13
COc1ccc2c(c1)Nc1ccc(Cl)cc1C2N.O=S(=O)(O)O (centres undefined)	99

----------
system: Plasmodium falciparum; assay: GSK_TCMDC: Inhibition of Plasmodium falciparum 3D7 in whole red blood cells, using parasite LDH activity as an index of growth. Test compounds present at 2uM; assay type: functional

CPD SMILES	TARGET SYSTEM	Inhibition (%)
COc1cc(Cc2cnc(N)nc2N)cc(OCCNC(=O)OCc2ccccc2)c1OC	Plasmodium falciparum	93
O=c1cc(NCCCNCc2cccc(OC(F)(F)F)c2)[nH]c2ccccc12	Plasmodium falciparum	97
Cn1ccnc1CNC(=O)c1ccc(-c2cccc(-c3nc4cc(F)ccc4[nH]3)c2)cc1	Plasmodium falciparum	96
CS(=O)(=O)O.FC(F)(F)COc1c(CNCCCCCCNCc2ccc3ccccc3c2OCC(F)(F)F)ccc2ccccc12	Plasmodium falciparum	100
Cc1ccc(N)cc1-c1nc(NC2CC(C)(C)NC(C)(C)C2)nc2c1ccc(=O)n2-c1c(F)cccc1F	Plasmodium falciparum	98
CCNc1cc(-c2cccc(OC)c2)nc(Nc2ccc(F)cc2)n1	Plasmodium falciparum	87
Cc1cccc2nc(-c3ccc(-c4ccc(CN5CCN(C6CCN(C)CC6)CC5)cc4)s3)[nH]c12.O=C(O)C(F)(F)F	Plasmodium falciparum	100
O=C(Nc1cccc(CN2CCN(C(=O)c3ccccc3)CC2)c1)c1cccs1.O=C(O)C(F)(F)F	Plasmodium falciparum	95
CC(=O)Nc1ccc(CN2CCC(NC(=O)c3ccc(-c4cccc(Cl)c4)s3)CC2)cc1.O=C(O)C(F)(F)F	Plasmodium falciparum	97

----------
tested on: HepG2; experiment: GSK_TCMDC: Percent inhibition of human HepG2 cell line. Test compounds present at 10uM.; assay type: functional
Below, each entry is listed with its recorded Inhibition.

MOLECULE	Inhibition
CS(=O)(=O)N(CC(O)Cn1c2ccc(Cl)cc2c2cc(Cl)ccc21)c1ccccc1 (configuration not stated)	2%
O=C(C=Cc1ccc(Cl)c(Cl)c1)NCCCCCN1CCCC(CCCNC(=O)c2ccc3c(c2)OCO3)C1 (configuration not stated)	30%
COc1cccc(OC)c1CN1CCC(N(C)CCCCCCCCN2CCC(OC(=O)Nc3ccccc3-c3ccccc3)CC2)CC1	100%
COc1cc(Nc2nccc(N3CCC(NC(=O)c4cccc(NC(C)=O)c4)C3)n2)cc(OC)c1OC (configuration not stated)	9%
O=C(Nc1cc(Cl)cc(Cl)c1)c1cc(Cl)c(=O)n(Cc2cccc(Cl)c2)c1	8%
Fc1cc(Cl)ccc1Nc1ccnc2cc(-c3ccc(CN4CCCCC4)o3)ccc12	16%
CN1CCCC1CCCOC(=O)c1ccc(N)cc1 (configuration not stated)	8%
CC(C)CCN1CCC(Oc2cccc(NC(=O)c3ccc(C(F)(F)F)cc3)c2)CC1.O=C(O)C(F)(F)F	39%
CC12CCC(C(=O)N(CC(O)Cn3c4ccc(Cl)cc4c4cc(Cl)ccc43)C1=O)C2(C)C (configuration not stated)	0%
CCCCN(CCCC)CCNC(=O)c1cccc(NC(=O)N2CCc3cc(SC)c(C(F)(F)F)cc32)c1	15%
CN1CCCC(CN2CCN(Cc3ccc(-c4ccc(-c5nc6cc(F)ccc6[nH]5)cc4)cc3)CC2)C1.O=C(O)C(F)(F)F (configuration not stated)	90%
Cc1ccc(-c2cccc3c(NC(=O)Nc4ccc5nccc(N6CCN(C)CC6)c5c4)cccc23)cn1.Cl	6%
CC(C)(C)OC(=O)[C@H](CC(N)=O)NC(=O)c1ccc(-c2ccc(-c3nc4cc(C(F)(F)F)ccc4[nH]3)s2)cc1	62%
O=S(=O)(Nc1cccc(F)c1CNCc1ccccn1)c1ccc(Cl)c(Cl)c1	45%
O=C(/C=C/c1ccc(Cl)c(Cl)c1)NCCCCCN1CCCN(C(=O)Nc2cc(Cl)nc(Cl)c2)CC1	8%
Cc1cccc(CN2CCC(CNC(=O)c3cc4c(-c5ccccc5F)nn(C)c4s3)CC2)c1	18%
CCN(CC)CCNC(=O)c1ccc(N/C=C2\C(=O)Nc3ccc(S(=O)(=O)Cc4c(Cl)cccc4Cl)cc32)cc1	25%
Cc1ccc(NC(=O)c2ccc3ncccc3c2)cc1OC1CCN(Cc2ccc(F)cc2)C1.O=C(O)C(F)(F)F (configuration not stated)	11%
CNC(=O)c1cc(S(=O)(=O)N2CCN(c3ccccn3)CC2)c(C)s1	0%
COc1ccc(CNC(=N)Nc2nc(-c3ccc(OCCCn4ccnc4)cc3)cs2)cc1.Cl	15%
CCN(CC)Cc1cc(NC(=O)c2ccccc2O)ccc1Oc1ccc(Cl)cc1.Cl	32%
CNCc1ccc(-c2cccc(CNCc3ccc(-c4ccccc4)cc3)c2)c(C(=O)OC)c1.O=C(O)C(F)(F)F	25%
N#Cc1cccc(NC(=O)C2=C(CCc3ccc4c(c3)OCO4)NC(=O)NC2c2cccc(C#N)c2)c1 (configuration not stated)	3%
COc1ccc(CCNCCCCNCCc2ccc(OC)c3ccccc23)c2ccccc12.CS(=O)(=O)O	100%
O=C(Nc1cccc(Cl)c1)c1cc2ccccc2cc1O	4%
CC(C)C[C@H](NC(=O)c1ccc(OCCN2CCOCC2)cc1)C(=O)N[C@H](/C=N/N1CC(=O)NC1=O)CCc1ccccc1	10%
CCCC[C@@H](C(=O)NCc1ccccc1C(F)(F)F)N1C(=O)CCC1C(=O)Nc1ccc([N+](=O)[O-])cc1 (some centres not stated)	7%
CC(C(=O)N1CCCC1)N1CCN(C(c2ccccc2)c2ccccc2)CC1 (configuration not stated)	0%
O=C(Cc1c[nH]cn1)Nc1cccc(-c2cccc(-c3nc4cc(C(F)(F)F)ccc4[nH]3)c2)c1	35%
CN1CCN(c2ccc(CNc3ccc4ncc(-c5ccc(OC(F)(F)F)cc5)n4n3)cc2)CC1	13%
Cc1nc2sccn2c1C(=O)NCCc1ccccc1Cl	6%
c1ccc(-c2n[nH]cc2Nc2ccnc3ccccc23)nc1	36%
COc1ccc(Nc2nc(N/N=C/c3ccc(O)cc3)nc(Nc3ccc([N+](=O)[O-])cc3)n2)cc1	0%
Cc1ccc(Nc2ccnc3ccc(C(F)(F)F)cc23)cc1O.O=C(O)C(F)(F)F	23%
c1ccc2sc(-c3csc(Nc4ccncc4)n3)nc2c1	0%
Cc1nc(-c2nc(N3CCC(C(N)=O)CC3)ncc2-c2ccsc2)sc1C	0%
COc1ccc(Nc2nccc(N3CCC(NC(=O)c4cccc(C#N)c4)C3)n2)cc1 (configuration not stated)	6%
